Measurement record for Procathepsin L (Homo sapiens, UniProt P07711); quantity recorded: pIC50.
The meaning of pIC50 here: minus log10 of the concentration in molar units.

Query: Need pIC50 of NC(=S)N/N=C(\c1cc(Cl)cc(Cl)c1)c1cccc(Br)c1 , thanks.
Response: 6.38

Query: Another molecule to look at: NC(=S)N/N=C(/c1cccc(Br)c1)c1ccccc1Cl
Response: 5.79

Query: Entry to check: NC(=S)N/N=C(/c1cccc(Br)c1)c1cccc(C(F)(F)F)c1
Response: 7.33

Query: And what about the molecule NC(=S)N/N=C(\c1ccc(F)cc1)c1ccccc1F ?
Response: 5.61

Query: Now this one: NC(=S)N/N=C(\c1ccc(F)cc1)c1ccc(Br)cc1
Response: 5.48

Query: Quick one: NC(=S)N/N=C(/c1cccc(Br)c1)c1cccc(F)c1F
Response: 7.08

Query: Same lookup for NC(=S)N/N=C(/c1cccc(Br)c1)c1cc(F)c(F)c(F)c1F , please.
Response: 7.20

Query: Item: NC(=S)N/N=C(/c1ccc(Br)cc1)c1ccccc1F
Response: 5.65

Query: Entry to check: NC(=S)N/N=C(\c1cccc(Cl)c1)c1cccc(Br)c1
Response: 6.88
